Quick reference for activity change, negative = inhibition among some molecules
experiment: qHTS Assay for Lipid Storage Modulators (AID 1519); details: Drosophila S3 cells, BODIPY lipid droplet/cell ratio, laser cytometry; at 57.5 µM (top of the series); cells loaded with oleic acid; further: on the % scale 0 is the no-effect control and ±100 the full control effect
Results filed as inconclusive are left out.
Quick reminder: number only, in %, skip the unit.

[[record]]
molecule = "COc1ccc(C(=O)c2ccccc2O)c(O)c1"
value = 4.5

[[record]]
molecule = "COc1ccc(CN(CCN(C)C)c2ncccn2)cc1"
value = 7.7

[[record]]
molecule = "CC(=O)NO"
value = 3.44

[[record]]
molecule = "CN(C)CCOC(=O)C(c1ccccc1)C1(O)CCCC1 (stereo not drawn)"
value = 8.35

[[record]]
molecule = "NC(=O)c1ccccc1O"
value = 8.72

[[record]]
molecule = "CCN(CC)CCOC(=O)C(Cc1cccc2ccccc12)CC1CCCO1 (stereo not drawn)"
value = 2.17

[[record]]
molecule = "COc1cc(N)c(Cl)cc1C(=O)NC1CCN(Cc2ccccc2)CC1"
value = 9.3

[[record]]
molecule = "CC(C)(C)NC[C@H](O)COc1nsnc1N1CCOCC1"
value = 1.69


Shift focus to the following entry.
Requested read-out: activity change, negative = inhibition. Entry: `CCN(CC)CCNC(=O)COc1ccc(OC)cc1`
3.31
